IC50 at 96 h: recorded values
Test: Cytotoxicity against human HCoEpiC cells expressing human DHODH assessed as reduction in cell viability measured after 96 hrs by MTT assay
Assay type: toxicity, cell-based
Value kind: IC50 at 96 h (µM)

compound="CCC(C)Oc1cc(NC(=O)/C(C#N)=C(/C)O)c(F)cc1-c1ccc2ccccc2c1 (configuration not stated)" output_unit=µM relation_qualifier== quantitative_readout=4.71
compound="CCC(C)Oc1cc(NC(=O)/C(C#N)=C(/C)O)c(F)cc1-c1cccc(C(F)(F)F)c1 (configuration not stated)" output_unit=µM relation_qualifier=> quantitative_readout=10

----------
As shown below, each of these molecules has a reported inhibition value.
Target or test system: Dihydroorotate dehydrogenase (quinone), mitochondrial (Homo sapiens)
Sequence (Q02127 whole entry): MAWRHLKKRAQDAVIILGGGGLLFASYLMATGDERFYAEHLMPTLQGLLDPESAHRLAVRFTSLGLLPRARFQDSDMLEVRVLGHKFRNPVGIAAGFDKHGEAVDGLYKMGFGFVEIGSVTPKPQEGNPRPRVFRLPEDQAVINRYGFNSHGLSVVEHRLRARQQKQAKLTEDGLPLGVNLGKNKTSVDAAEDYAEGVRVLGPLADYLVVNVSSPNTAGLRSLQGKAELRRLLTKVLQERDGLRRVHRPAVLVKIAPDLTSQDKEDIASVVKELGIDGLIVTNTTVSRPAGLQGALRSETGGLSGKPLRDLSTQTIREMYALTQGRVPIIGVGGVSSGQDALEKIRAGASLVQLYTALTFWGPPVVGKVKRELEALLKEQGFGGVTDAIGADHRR
Test: Inhibition of human N-terminal SUMO-tagged DHODH expressed in Escherichia coli BL21(DE3) at 100 nM using dihydroorotate as substrate by DCIP based microplate reader analysis relative to control
Value kind: inhibition (%)

molecule="CCC(C)Oc1cc(NC(=O)/C(C#N)=C(/C)O)c(F)cc1-c1ccc(OC)cc1 (configuration not stated)" target_or_test_system="Dihydroorotate dehydrogenase (quinone), mitochondrial (Homo sapiens)" quantitative_readout=72.1
molecule=COc1cccc(-c2cc(F)c(NC(=O)/C(C#N)=C(/C)O)cc2OCC(C)C)c1 target_or_test_system="Dihydroorotate dehydrogenase (quinone), mitochondrial (Homo sapiens)" quantitative_readout=77.6
molecule="CCC(C)Oc1cc(NC(=O)/C(C#N)=C(/C)O)c(F)cc1-c1ccnc(F)c1 (configuration not stated)" target_or_test_system="Dihydroorotate dehydrogenase (quinone), mitochondrial (Homo sapiens)" quantitative_readout=87.7
molecule="CCC(C)Oc1cc(NC(=O)/C(C#N)=C(/C)O)c(F)cc1-c1ccccc1Cl (configuration not stated)" target_or_test_system="Dihydroorotate dehydrogenase (quinone), mitochondrial (Homo sapiens)" quantitative_readout=86.3
molecule="CCCC(C)Oc1cc(NC(=O)/C(C#N)=C(/C)O)c(F)cc1-c1cccc(OC)c1 (configuration not stated)" target_or_test_system="Dihydroorotate dehydrogenase (quinone), mitochondrial (Homo sapiens)" quantitative_readout=86.5
molecule="CCC(C)Oc1cc(NC(=O)/C(C#N)=C(/C)O)c(F)cc1-c1cccc(F)c1 (configuration not stated)" target_or_test_system="Dihydroorotate dehydrogenase (quinone), mitochondrial (Homo sapiens)" quantitative_readout=83.6
molecule="CCC(C)Oc1cc(NC(=O)/C(C#N)=C(/C)O)c(F)cc1-c1ccc(F)nc1 (configuration not stated)" target_or_test_system="Dihydroorotate dehydrogenase (quinone), mitochondrial (Homo sapiens)" quantitative_readout=52.3
molecule=C=C(C)COc1cc(NC(=O)/C(C#N)=C(/C)O)c(F)cc1-c1cccc(OC)c1 target_or_test_system="Dihydroorotate dehydrogenase (quinone), mitochondrial (Homo sapiens)" quantitative_readout=58.6
molecule="CCC(C)Oc1cc(NC(=O)/C(C#N)=C(/C)O)c(F)cc1-c1cc(F)cc(F)c1 (configuration not stated)" target_or_test_system="Dihydroorotate dehydrogenase (quinone), mitochondrial (Homo sapiens)" quantitative_readout=85.1
molecule=CCC(CC)Oc1cc(NC(=O)/C(C#N)=C(/C)O)c(F)cc1-c1cccc(OC)c1 target_or_test_system="Dihydroorotate dehydrogenase (quinone), mitochondrial (Homo sapiens)" quantitative_readout=84.6
molecule="CCC(C)Oc1cc(NC(=O)/C(C#N)=C(/C)O)c(F)cc1-c1ccc2ccccc2c1 (configuration not stated)" target_or_test_system="Dihydroorotate dehydrogenase (quinone), mitochondrial (Homo sapiens)" quantitative_readout=95.6
molecule="CCC(C)Oc1cc(NC(=O)/C(C#N)=C(/C)O)c(F)cc1-c1cc2ccccc2o1 (configuration not stated)" target_or_test_system="Dihydroorotate dehydrogenase (quinone), mitochondrial (Homo sapiens)" quantitative_readout=89.9
molecule=CCCOc1cc(NC(=O)/C(C#N)=C(/C)O)c(F)cc1-c1cccc(OC)c1 target_or_test_system="Dihydroorotate dehydrogenase (quinone), mitochondrial (Homo sapiens)" quantitative_readout=68.2
molecule="CCC(C)Oc1cc(NC(=O)/C(C#N)=C(/C)O)c(F)cc1-c1cccc(OC)c1 (configuration not stated)" target_or_test_system="Dihydroorotate dehydrogenase (quinone), mitochondrial (Homo sapiens)" quantitative_readout=91.2
molecule="CCC(C)Oc1cc(NC(=O)/C(C#N)=C(/C)O)c(F)cc1-c1ccccc1F (configuration not stated)" target_or_test_system="Dihydroorotate dehydrogenase (quinone), mitochondrial (Homo sapiens)" quantitative_readout=82.9
molecule="CCC(C)Oc1cc(NC(=O)/C(C#N)=C(/C)O)c(F)cc1-c1ccc2c(c1)OCO2 (configuration not stated)" target_or_test_system="Dihydroorotate dehydrogenase (quinone), mitochondrial (Homo sapiens)" quantitative_readout=83.1
molecule="CCC(C)Oc1cc(NC(=O)/C(C#N)=C(/C)O)c(F)cc1-c1ccc(Cl)cc1 (configuration not stated)" target_or_test_system="Dihydroorotate dehydrogenase (quinone), mitochondrial (Homo sapiens)" quantitative_readout=68.5
molecule=C=CCOc1cc(NC(=O)/C(C#N)=C(/C)O)c(F)cc1-c1cccc(OC)c1 target_or_test_system="Dihydroorotate dehydrogenase (quinone), mitochondrial (Homo sapiens)" quantitative_readout=58.5
molecule="CCC(C)Oc1cc(NC(=O)/C(C#N)=C(/C)O)c(F)cc1-c1ccc(C(F)(F)F)cc1 (configuration not stated)" target_or_test_system="Dihydroorotate dehydrogenase (quinone), mitochondrial (Homo sapiens)" quantitative_readout=34.1
molecule=COc1cccc(-c2cc(F)c(NC(=O)/C(C#N)=C(/C)O)cc2OC)c1 target_or_test_system="Dihydroorotate dehydrogenase (quinone), mitochondrial (Homo sapiens)" quantitative_readout=57.7
molecule="CCC(C)Oc1cc(NC(=O)/C(C#N)=C(/C)O)c(F)cc1-c1cccc2ccccc12 (configuration not stated)" target_or_test_system="Dihydroorotate dehydrogenase (quinone), mitochondrial (Homo sapiens)" quantitative_readout=95
molecule=CCOc1cc(NC(=O)/C(C#N)=C(/C)O)c(F)cc1-c1cccc(OC)c1 target_or_test_system="Dihydroorotate dehydrogenase (quinone), mitochondrial (Homo sapiens)" quantitative_readout=65.2
molecule="CCC(C)Oc1cc(NC(=O)/C(C#N)=C(/C)O)c(F)cc1-c1cc(Cl)ccc1C (configuration not stated)" target_or_test_system="Dihydroorotate dehydrogenase (quinone), mitochondrial (Homo sapiens)" quantitative_readout=47.2
molecule=COc1cccc(-c2ccc(NC(=O)/C(C#N)=C(/C)O)cc2OC)c1 target_or_test_system="Dihydroorotate dehydrogenase (quinone), mitochondrial (Homo sapiens)" quantitative_readout=48.4
molecule="CCC(C)Oc1cc(NC(=O)/C(C#N)=C(/C)O)c(F)cc1-c1cccc(Cl)c1C (configuration not stated)" target_or_test_system="Dihydroorotate dehydrogenase (quinone), mitochondrial (Homo sapiens)" quantitative_readout=85.3
molecule="CCC(C)Oc1cc(NC(=O)/C(C#N)=C(/C)O)c(F)cc1-c1ccccc1C (configuration not stated)" target_or_test_system="Dihydroorotate dehydrogenase (quinone), mitochondrial (Homo sapiens)" quantitative_readout=78.6
molecule=COc1cccc(-c2cc(F)c(NC(=O)/C(C#N)=C(/C)O)cc2OCc2c(F)cccc2Cl)c1 target_or_test_system="Dihydroorotate dehydrogenase (quinone), mitochondrial (Homo sapiens)" quantitative_readout=40.3
molecule="CCC(C)Oc1cc(NC(=O)/C(C#N)=C(/C)O)c(F)cc1-c1cccc(Cl)c1 (configuration not stated)" target_or_test_system="Dihydroorotate dehydrogenase (quinone), mitochondrial (Homo sapiens)" quantitative_readout=87.5
molecule="CCC(C)Oc1cc(NC(=O)/C(C#N)=C(/C)O)c(F)cc1-c1ccccc1 (configuration not stated)" target_or_test_system="Dihydroorotate dehydrogenase (quinone), mitochondrial (Homo sapiens)" quantitative_readout=80.4
molecule="CCC(C)Oc1cc(NC(=O)/C(C#N)=C(/C)O)c(F)cc1-c1cccc(C(F)(F)F)c1 (configuration not stated)" target_or_test_system="Dihydroorotate dehydrogenase (quinone), mitochondrial (Homo sapiens)" quantitative_readout=92.4
molecule="CCC(C)Oc1cc(NC(=O)/C(C#N)=C(/C)O)c(F)cc1-c1ccc(F)c(F)c1 (configuration not stated)" target_or_test_system="Dihydroorotate dehydrogenase (quinone), mitochondrial (Homo sapiens)" quantitative_readout=80.1
molecule="CCC(C)Oc1cc(NC(=O)/C(C#N)=C(/C)O)c(F)cc1-c1cccc(F)c1C (configuration not stated)" target_or_test_system="Dihydroorotate dehydrogenase (quinone), mitochondrial (Homo sapiens)" quantitative_readout=82.5
